target: Troponin I, cardiac muscle (Homo sapiens) + Troponin T, cardiac muscle (Homo sapiens) + Troponin C, slow skeletal and cardiac muscles (Homo sapiens) (UniProt P19429+P45379+P63316); experiment: cardiac RTF calcium sensitivity activators, confirmation, biochemical, IANBD-TnC fluorescence, triplicate (AID 504383); conditions: IANBD-labeled cardiac RTF, Ca2+ sensitivity fluorescence; at 7.2 µM; scaled from EC20 to saturating calcium; tested at EC20 calcium, 0.472 mM
The whole screen tested about 2,500 compounds, of which about 1,200 (48%) were called active.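 Rule for the calls: active = mean activation above the low control average plus 3 SD, as set in the primary screen (cut at about 12% in these data); inactive = the rest.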 The set was probably picked from earlier hits. This is one part of the list.
Could you please pick one outcome from this set? active, inactive

Please review the following examples before continuing.
Cc1ccc2nc3nc(NCC4CCCO4)c(C(=O)NC4CCCC4)cc3c(=O)n2c1 (stereo not drawn): active
Cc1nccc(-c2cccc(N/N=C(\C#N)C(=O)c3ccccc3)c2)n1: inactive
Cc1noc(NS(=O)(=O)c2ccc(NC(=O)CSc3nc4c(cc3C#N)CCC4)cc2)c1C: active
Cc1cc(C)c(NC(=S)N(C)C)c(C)c1: active
CS(=O)(=O)N(CC(=O)NCCSCc1ccccc1)c1ccccc1: inactive
Cc1cccc(C)c1-n1c(C)nn(-c2ncc(C(F)(F)F)cc2Cl)c1=O: inactive
CN1/C(=C\C=C(/C#N)C(=O)Nc2ccccc2F)C(C)(C)c2ccccc21: inactive

Now consider the entry below.
Inquiry: Query: recorded result category for COc1ccc(CNS(=O)(=O)c2cc(-c3cc(C)no3)ccc2OC)cc1OC in this test
Reply text: active
